- assay_explanation: Biodistribution studies in mice (radioiodinated compounds, % ID/g-tissue)
- Type: in vivo
- condition_label: mouse, kidney, iv, kidney, 1', tracer level, but MDTA-Na 0.18M and MDTA-NMG 0.19M, read-out: Biodistribution, Kidney 1'
Lab note: anything with tissue uptake at 1 min at or over 6 %ID/g counts as rule met; the rest go in rule not met.

1. CC(=O)N(C)c1c(I)c(C(=O)Nc2ccc(CCCCCCCCCCC(=O)O)cc2)c(I)c(N(C)C(C)=O)c1I = rule met
2. CC(=O)N(C)c1c(I)c(C(=O)Nc2ccc(CC(=O)O)cc2)c(I)c(N(C)C(C)=O)c1I = rule met
3. CC(=O)N(C)c1c(I)c(C(=O)NCCCCCCC(=O)O)c(I)c(N(C)C(C)=O)c1I = rule met
4. CC(=O)N(C)c1c(I)c(C(=O)Nc2ccc(CCCC(=O)O)cc2)c(I)c(N(C)C(C)=O)c1I = rule not met
5. CC(=O)N(C)c1c(I)c(C(=O)Nc2ccc(CCCCCCC(=O)O)cc2)c(I)c(N(C)C(C)=O)c1I = rule not met
6. CC(=O)N(C)c1c(I)c(C(=O)NCCCCCCCCCCCC(=O)O)c(I)c(N(C)C(C)=O)c1I = rule met
7. CC(=O)N(C)c1c(I)c(C(=O)Nc2ccc(CCCCCCCCCCCCCCCCCCC(=O)O)cc2)c(I)c(N(C)C(C)=O)c1I = rule not met
